System: HL-60(TB) leukemia
PROCEDURE_DETAILS: NCI-60 one-dose screen, 48 h (100 = growth as untreated, 0 = no growth, -100 = all killed)
EXPERIMENTAL_SETUP: 10 µM unless noted
Compounds without any hit were thinned out: in the full panel of roughly 83,000, 20% have a hit.
MEASURED_PROPERTY: growth (%)

[
  {
    "MOLECULE": "NC(=O)SCC(=O)Nc1ccc([As](=O)(O)O)cc1",
    "MEASURED_PROPERTY": "growth",
    "QUANTITY_UNIT": "%",
    "TEST_RESULT": 56.9
  },
  {
    "MOLECULE": "CCN1C(=O)N(CC)C2C1NN=c1s/c(=C\\c3cnc(C)n3C)c(=O)n12 (centres undefined)",
    "MEASURED_PROPERTY": "growth",
    "QUANTITY_UNIT": "%",
    "TEST_RESULT": -33.3
  },
  {
    "MOLECULE": "OCC1OC(n2ccc3c2ncn2ncnc32)C(O)C1O (centres undefined)",
    "MEASURED_PROPERTY": "growth",
    "QUANTITY_UNIT": "%",
    "TEST_RESULT": -14.4
  },
  {
    "MOLECULE": "CNc1ccc(Nc2ccc(S(=O)(=O)O)cc2)c2c1C(=O)c1ccccc1C2=O",
    "MEASURED_PROPERTY": "growth",
    "QUANTITY_UNIT": "%",
    "TEST_RESULT": 120
  },
  {
    "MOLECULE": "C=CCN1C(=O)/C(=c2\\sc3n(c2=O)C2C(NN=3)N(CC)C(=O)N2CC)c2ccccc21 (centres undefined)",
    "MEASURED_PROPERTY": "growth",
    "QUANTITY_UNIT": "%",
    "TEST_RESULT": -17.4
  },
  {
    "MOLECULE": "COc1cc(/C=C/c2cc(/C=C/c3ccc(O)c(OC)c3)n(C(N)=O)n2)ccc1O",
    "MEASURED_PROPERTY": "growth",
    "QUANTITY_UNIT": "%",
    "TEST_RESULT": -25.1
  },
  {
    "MOLECULE": "CSc1nnc2c(=O)n(C)c(=O)n(C)c2n1",
    "MEASURED_PROPERTY": "growth",
    "QUANTITY_UNIT": "%",
    "TEST_RESULT": 161
  },
  {
    "MOLECULE": "Clc1ccc(-c2nnc(COc3ccccc3Cl)o2)cc1",
    "MEASURED_PROPERTY": "growth",
    "QUANTITY_UNIT": "%",
    "TEST_RESULT": 120
  },
  {
    "MOLECULE": "OC(c1cc(-c2ccc(C(F)(F)F)cc2)nc(-c2ccc(C(F)(F)F)cc2)c1)C1CCCCN1 (centres undefined)",
    "MEASURED_PROPERTY": "growth",
    "QUANTITY_UNIT": "%",
    "TEST_RESULT": -61.8
  },
  {
    "MOLECULE": "CC(C)C[C@H](NC(=O)CCn1ccc2ccccc2c1=O)B(O)O",
    "MEASURED_PROPERTY": "growth",
    "QUANTITY_UNIT": "%",
    "TEST_RESULT": 28.1
  },
  {
    "MOLECULE": "O=C1/C(=C/c2ccc([N+](=O)[O-])cc2)COc2ccc(O)c(O)c21",
    "MEASURED_PROPERTY": "growth",
    "QUANTITY_UNIT": "%",
    "TEST_RESULT": -14.6
  },
  {
    "MOLECULE": "COc1cc(CCC[P+](c2ccccc2)(c2ccccc2)c2ccccc2)c(OC)c2c1OCO2",
    "MEASURED_PROPERTY": "growth",
    "QUANTITY_UNIT": "%",
    "TEST_RESULT": 13.6
  },
  {
    "MOLECULE": "O=C(Nc1ncc(Cc2cc(Cl)ccc2Cl)s1)c1cccs1",
    "MEASURED_PROPERTY": "growth",
    "QUANTITY_UNIT": "%",
    "TEST_RESULT": 86.1
  },
  {
    "MOLECULE": "O=c1[nH]c(=O)n(C2C[C@@H](O)[C@@H](CO)O2)cc1F (some centres undefined)",
    "MEASURED_PROPERTY": "growth",
    "QUANTITY_UNIT": "%",
    "TEST_RESULT": 27.1
  }
]

Values from PubChem BioAssay (NCI)
